These measurements were taken from patent US20230032101A1.

System: type I interferon pathway (ISG) in human THP1-Blue-ISG cells
measurement.notes: Activation of type I interferon pathway (ISG) in human THP1-Blue-ISG cells (Quanti-Blue, OD650)
Format: cell-based
conditions.used: Homo sapiens, THP1-Blue ISG; 10 μM, 24 h; Compound OD650/Control OD650; ≥2 times considered valid; read-out: Fold Change
Response field label takes satisfied when fold induction at 10 µM is strictly below 10 and not satisfied in all other cases.

> print(dat)
                                    compound  assigned.category
 1  O=C(O)CCC(=O)c1cc(-c2c[nH]c3cc(F)ccc23)co1 [I′-38]          satisfied
 2  O=C(O)CCC(=O)c1cc(-c2c[nH]c3c(F)cccc23)cs1 [I′-49]      not satisfied
 3  COC(=O)CC(=O)c1cc(-c2c[nH]c3cc(F)ccc23)co1 [Example I-37]      not satisfied
 4  O=C(O)CCC(=O)c1cc(-c2c[nH]c3cc(F)ccc23)cs1 [I′-46]      not satisfied
 5  COC(=O)CC(=O)c1cc(-c2c[nH]c3ccc(OC)cc23)co1 [Example I-43]      not satisfied
 6  COC(=O)CC(=O)c1cc(-c2c[nH]c3ccc(F)cc23)co1 [Example I-40]      not satisfied
 7  O=C(O)CCC(=O)c1cc(-c2c[nH]c3ccccc23)cs1 [I′-31]      not satisfied
 8  COC(=O)CC(=O)c1cc(-c2c[nH]c3ccc(OC)cc23)cs1 [Example I-42]      not satisfied
 9  COC(=O)CC(=O)c1cc(-c2c[nH]c3ccccc23)cs1 [Example I-16]      not satisfied
10  COC(=O)CC(=O)c1cc(-c2c[nH]c3c(F)cccc23)co1 [Example I-38]      not satisfied
11  COC(=O)CC(=O)c1cc(-c2c[nH]c3cccc(F)c23)co1 [Example I-39]      not satisfied
12  O=C(O)CCC(=O)c1cc(-c2c[nH]c3cccc(F)c23)cs1 [I′-51]          satisfied
13  COC(=O)CCC(=O)c1cc(-c2c[nH]c3c(F)cccc23)cs1 [I′-50]      not satisfied
14  O=C(O)CC(=O)c1cc(-c2c[nH]c3ccccc23)cs1 [Example I-1]      not satisfied
15  O=C(O)CCC(=O)c1cc(-c2c[nH]c3c(F)cccc23)co1 [I′-58]          satisfied
16  O=C(O)CC(=O)c1cc(-c2c[nH]c3cc(F)ccc23)cs1 [Example I-2]      not satisfied
17  COC(=O)CC(=O)c1cc(-c2c[nH]c3cc(F)ccc23)cs1 [Example I-17]      not satisfied
